Target: Glucocorticoid receptor (Homo sapiens) (UniProt P04150)
Sequence (P04150 whole entry, looked up): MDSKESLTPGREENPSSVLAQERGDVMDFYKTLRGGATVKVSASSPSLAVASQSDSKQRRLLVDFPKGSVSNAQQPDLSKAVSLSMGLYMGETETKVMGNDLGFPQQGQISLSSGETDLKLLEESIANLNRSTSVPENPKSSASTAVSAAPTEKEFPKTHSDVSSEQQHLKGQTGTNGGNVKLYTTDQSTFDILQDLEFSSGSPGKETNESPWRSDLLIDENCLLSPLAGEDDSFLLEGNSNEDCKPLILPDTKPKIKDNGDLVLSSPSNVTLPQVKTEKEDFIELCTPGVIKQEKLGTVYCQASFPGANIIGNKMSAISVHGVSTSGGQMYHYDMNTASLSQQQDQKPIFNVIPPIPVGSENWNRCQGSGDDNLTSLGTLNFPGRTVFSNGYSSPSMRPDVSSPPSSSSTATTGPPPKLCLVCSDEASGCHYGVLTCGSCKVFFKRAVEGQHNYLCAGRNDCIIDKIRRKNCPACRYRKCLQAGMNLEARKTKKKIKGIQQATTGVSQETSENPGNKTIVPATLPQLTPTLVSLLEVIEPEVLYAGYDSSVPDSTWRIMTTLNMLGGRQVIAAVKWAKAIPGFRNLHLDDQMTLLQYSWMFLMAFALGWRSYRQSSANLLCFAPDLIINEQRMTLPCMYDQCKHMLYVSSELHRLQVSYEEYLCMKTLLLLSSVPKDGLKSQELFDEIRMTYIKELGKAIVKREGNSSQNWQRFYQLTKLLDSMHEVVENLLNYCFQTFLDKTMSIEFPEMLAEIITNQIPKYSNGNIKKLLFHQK
Experiment: qHTS assay for small molecule agonists of glucocorticoid receptor signaling (AID 588532);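 further: 100% = dexamethasone at 0.1 µM and 0% = DMSO only wells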
Conditions: HeLa MMTV-bla, beta-lactamase ratio, agonist, 18 h; stronger effect = higher value, percent of dexamethasone control, DMSO zero
Inconclusive results are not listed.

| COMPOUND | activation / % |
| --- | --- |
| CCSC(=O)N(CC)C1CCCCC1 | -1.4 |
| CCN(CC)c1nc(C)cc(OP(=S)(OC)OC)n1 | 19.3 |
| CNC(=O)O/N=C(\C)SC | -2.31 |
| O=S(=O)(c1ccc(Cl)cc1)c1cc(Cl)c(Cl)cc1Cl | 0.889 |
| CCC[CH2][Sn]([CH2]CCC)([CH2]CCC)[O][Sn]([CH2]CCC)([CH2]CCC)[CH2]CCC | 3.22 |
| CCOP(=O)(OCC)Oc1ccc2c(C)c(Cl)c(=O)oc2c1 | -3.39 |
| O=P(Oc1ccccc1)(Oc1ccccc1)Oc1ccccc1 | 6.86 |
| COc1nc(C)nc(NC(=O)NS(=O)(=O)c2ccccc2CCC(F)(F)F)n1 | -2.83 |
| CC(C)N(C(=O)CCl)c1ccccc1 | -11.4 |
| CCOP(=S)(OCC)OC(Cl)C(Cl)(Cl)Cl (stereo not given) | 11.6 |
| CCCCCCCCCCCC#N | -5.17 |
| CC(C)=CC1[C@H](C(=O)OCc2cccc(Oc3ccccc3)c2)C1(C)C (stereo not given in full) | 1.86 |
| CC1COC(Cn2cncn2)(c2ccc(Oc3ccc(Cl)cc3)cc2Cl)O1 (stereo not given) | -11.8 |
| O=C(O)COc1ccc(Cl)cc1 | -1.72 |
| COC(=O)N(OC)c1ccccc1COc1ccn(-c2ccc(Cl)cc2)n1 | -3.13 |
| Oc1ccc(C(c2ccc(O)cc2)(C(F)(F)F)C(F)(F)F)cc1 | -15.3 |
| CSC(=O)c1c(C(F)F)nc(C(F)(F)F)c(C(=O)SC)c1CC(C)C | -2.18 |
| CCOP(=O)(NC(C)C)Oc1ccc(S(C)=O)c(C)c1 (stereo not given) | -7.67 |
| N#CN=C1SCCN1Cc1ccc(Cl)nc1 | 0.0374 |
| CCC/C(=N\OCC)C1=C(O)CC(CC(C)SCC)CC1=O (stereo not given) | -6.86 |
| O=C(O)C1C(C(=O)O)C2(Cl)C(Cl)=C(Cl)C1(Cl)C2(Cl)Cl (stereo not given) | -1.68 |
| COC(=O)c1ccccc1CS(=O)(=O)NC(=O)Nc1nc(OC)cc(OC)n1 | -0.772 |
| CSc1nnc(C(C)(C)C)c(=O)n1N | -5.36 |
| Brc1ccc(Br)cc1 | 1.41 |
| CO/N=C(/C1=NOCCO1)c1ccccc1Oc1ncnc(Oc2ccccc2Cl)c1F | -11.9 |

---

Tested on: PAD
Test: qHTS profiling for inhibitors of Plasmodium falciparum proliferation (AID 504749); further: nearly all actives have a fitted effect of over 60% in size; further: potency means the concentration at half of the fitted maximal effect
Conditions: P. falciparum in erythrocytes, SYBR Green DNA, 72 h; series mostly up to 28.7 µM
Results filed as inconclusive are left out. The source made the active and inactive calls. Calls follow the shape of the dose curve; as a rule, active = well fitted inhibition curve with a large enough effect; inconclusive = small, poorly fitted or top-dose-only effect; inactive = flat fitted curve, though single readings scatter.

| COMPOUND | Potency |
| --- | --- |
| CCC(=O)OC1(c2ccccc2)CCN(C)CC1C (stereo not given) | inactive |
| [S]=[Sb][S][Sb]=[S] | inactive |
| C=CC[N+]1(C)CCC23c4c5ccc(O)c4O[C@H]2C(=O)CC[C@@]3(O)C1C5 (stereo not given in full) | inactive |
| CCC/C=C/C=C/C(=O)OC1/C(=C/C(=O)OC)CC2CC(C(C)O)OC(=O)CC(O)CC3CC(OC(C)=O)C(C)(C)C(O)(CC4C/C(=C/C(=O)OC)CC(/C=C\C(C)(C)C1(O)O2)O4)O3 (stereo not given) | 1780 nM (active) |
| CC(C)=CC1C(C(=O)OCc2coc(Cc3ccccc3)c2)C1(C)C (stereo not given) | inactive |

---

Assay: qHTS assay for small molecule agonists of the antioxidant response element (ARE) signaling pathway measured by Nrf2-dependant transcriptional activity (AID 720636);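 on activation: HepG2 cells with an ARE-driven luciferase reporter; % of control where 0% means no effect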
Settings: ARE-luc HepG2, Nrf2 luciferase reporter, 16 h; series mostly up to 92.4 µM
Records with an inconclusive call do not appear. The source made the active and inactive calls. The call rests on the fitted dose curve; in most records, active means well fitted activation curve with a large enough effect in the repeat runs; inconclusive means weak or mixed curves; inactive means flat fitted curve, though single readings scatter.
Labels: active, inactive

| MOLECULE | CLASS ASSIGNMENT |
| --- | --- |
| O=C(O)C1C(C(=O)O)C2(Cl)C(Cl)=C(Cl)C1(Cl)C2(Cl)Cl (configuration not stated) | inactive |
| CC(C)=CC1C(C(=O)OCc2coc(Cc3ccccc3)c2)C1(C)C (configuration not stated) | inactive |
| C1CC[CH]([Sn]([CH]2CCCCC2)[CH]2CCCCC2)CC1 | active |
| Nc1cccc(Cl)c1Cl | inactive |
| COCc1cnc(C2=NC(C)(C(C)C)C(=O)N2)c(C(=O)O)c1 (configuration not stated) | inactive |
| COc1ccc(C(O)(c2cncnc2)C2CC2)cc1 (configuration not stated) | inactive |
| CC1(C)CC/C(=C\c2ccc(Cl)cc2)C1(O)Cn1cncn1 (configuration not stated) | inactive |
| O=[N+]([O-])Nc1nccn1Cc1ccc(Cl)nc1 | inactive |
| COP(=S)(OC)Oc1c(Cl)cc(C)cc1Cl | inactive |
| CCOP(=O)(OCC)SCSP(=S)(OCC)OCC | inactive |
| COc1cc(OC)nc(NC(=O)NS(=O)(=O)c2cc(NC=O)ccc2C(=O)N(C)C)n1 | inactive |
| Cc1ccc(O)cc1C | inactive |
| CCOc1nc(F)cc2nc(S(=O)(=O)Nc3c(Cl)cccc3Cl)nn12 | inactive |
| Clc1ccc([C@]2(Cn3cncn3)C[C@H](Br)CO2)c(Cl)c1 | inactive |
| CON=C(C(=O)OC)c1ccccc1CO/N=C(\C)c1cccc(C(F)(F)F)c1 | inactive |
| Nc1nc(N)nc(Cl)n1 | inactive |
| CC(O)CN(CC(C)O)CC(C)O (configuration not stated) | inactive |
| CO/N=C(/C(=O)OC)c1ccccc1COc1ccccc1C | inactive |
| CCOc1ccc(C(C)(C)COCc2cccc(Oc3ccccc3)c2)cc1 | inactive |
| Cc1c(COC(=O)C2C(/C=C(\Cl)C(F)(F)F)C2(C)C)cccc1-c1ccccc1 (configuration not stated) | inactive |
| CCOP(=O)(NC(C)C)Oc1ccc(S(C)=O)c(C)c1 (configuration not stated) | inactive |
| CNC(=O)Oc1cc(C)c(SC)c(C)c1 | inactive |
| CCNc1nc(NC(C)C)nc(SC)n1 | inactive |
| CC(C)(C)C(=O)[C@@H](Oc1ccc(Cl)cc1)n1cncn1 | inactive |
| CCOP(N)(=O)Oc1ccc(SC)c(C)c1 (configuration not stated) | inactive |
| Clc1ccc(C(Cl)(Cl)Cl)cc1 | inactive |
| CN1COCN(Cc2cnc(Cl)s2)/C1=N\[N+](=O)[O-] | inactive |
| CCOP(=S)(OCC)SCC(=O)NC(C)C | inactive |
| [Cu+2].[O-]c1cccc2cccnc12.[O-]c1cccc2cccnc12 | inactive |
| C#CCC1=C(C)[C@H](OC(=O)[C@H]2[C@H](C=C(C)C)C2(C)C)CC1=O | inactive |
| CC(Oc1ccc(Cl)cc1Cl)C(=O)O (configuration not stated) | inactive |
| Brc1ccc(Br)cc1 | inactive |
| O=CNC(N1CCN(C(NC=O)C(Cl)(Cl)Cl)CC1)C(Cl)(Cl)Cl (configuration not stated) | inactive |
| CC(C)(C)[C@@H](O)/C(=C\c1ccc(Cl)cc1Cl)n1cncn1 | inactive |
| CCOP(=O)(OCC)SCS(=O)(=O)C(C)(C)C | inactive |
| CCOc1nc(NC)nc(NC(=O)NS(=O)(=O)c2ccccc2C(=O)OC)n1 | inactive |
| COc1ccc(-c2ccccc2)cc1NNC(=O)OC(C)C | inactive |
| C=C(C)C(=O)OCC(CC)CCCC (configuration not stated) | inactive |
| COC(=O)c1ccccc1S(=O)(=O)NC(=O)N(C)c1nc(C)nc(OC)n1 | inactive |
| CC(C)=CC1[C@H](C(=O)OCc2cccc(Oc3ccccc3)c2)C1(C)C (some centres not stated) | inactive |
| N#Cc1cc(Br)c(O)c(Br)c1 | inactive |
| C=CCOC(=O)C(C)(C)OC(=O)c1cc(-n2c(=O)cc(C(F)(F)F)n(C)c2=O)ccc1Cl | inactive |
| c1ccc2c(c1)[nH]c1ccccc12 | inactive |
| CC(=O)[O-].CC(=O)[O-].O.O.[Cd+2] | active |
| CCC(C)c1cc([N+](=O)[O-])cc([N+](=O)[O-])c1O (configuration not stated) | inactive |
| ClC1=C(Cl)C2(Cl)C3C(Cl)C(Cl)CC3C1(Cl)C2(Cl)Cl (configuration not stated) | inactive |
| CCOP(=S)(OCC)SCSP(=S)(OCC)OCC | inactive |
